Attribution: patent US20130310428A1

# Test system: mixture of Aspergillus niger (ATCC 9642), Aureobasidium pullulans (ATCC 15233), Chaetomium globosum (ATCC 6205), Penicillium funiculosum (ATCC 11797) and …
# method_description: Fungal resistance test ASTM G-21, flexible PVC coupons
# Format: cell-based
# Parameters: key: 0 is no growth; 1 is traces of growth (less than 10%); 2 is light growth (10-30%); 3 is medium growth (30-60%); 4 is maximum growth (more than 60%)
# condition_label: Quantity 500 ppm, rating at 4th week
# Protocol: Plastic samples containing the biocide concentrate composition containing antioxidant can be prepared by mixing with commercially available flexible PVC and processing at 175° C. in a brabender. The samples are pressed to form coupons for testing purposes. A sample containing no biocide is also prepared to serve as a negative control against the samples of the present invention. Fungal resistance tests are conducted according to ASTM G-21. […]
measurement_label: Fungal Resistance Test

c1ccc2c(c1)Oc1ccccc1[As]2O[As]1c2ccccc2Oc2ccccc21 [OBPA, 10,10-oxybisphenoxarsine] yielded Fungal Resistance Test of 0
